B1: TRAF3IP2 (parent)
chain: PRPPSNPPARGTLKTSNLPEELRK

Variants of: B1
assay-method-text: protein stability index of a GFP-peptide fusion (GPS, HEK-293T) (PSI 1-6); higher = more stable;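 also: lentivirally expressed fusions sorted by FACS into six bins by GFP to DsRed ratio, PSI derived from sequencing read proportions per bin multiplied by bin number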
assay-setup: c terminus: a fixed tail appended
Overview of reported protein stability index across a group of variants:
parameter-measured: protein stability index

sequence-string: PRPPSFPPARGTLKTSNLPEELRK [N6F]
result: 5.34

sequence-string: PRPPSNPPARGTLKTSDLPEELRK [N17D]
result: 5.09

sequence-string: PRPDSNPPARGTLKTSNLPEELRK [P4D]
result: 4.7

sequence-string: PRPPSNPPARGTLKTSNWPEELRK [L18W]
result: 4.2

sequence-string: PRPRSNPPARGTLKTSNLPEELRK [P4R]
result: 4.49

sequence-string: PRPPSAPPARGTLKTSNLPEELRK [N6A]
result: 5.47

sequence-string: PRPPSNPPARGTLKTSNLPLELRK [E20L]
result: 4.1

meta.source: the supplement of paper PMC10567573
